Target: T1, human CD63 (human, UniProt P08962 2-238)
T1 construct: stably transfected in NIH3T3/hCD63; The cell line is named under assay; also called hCD63
T1 sequence: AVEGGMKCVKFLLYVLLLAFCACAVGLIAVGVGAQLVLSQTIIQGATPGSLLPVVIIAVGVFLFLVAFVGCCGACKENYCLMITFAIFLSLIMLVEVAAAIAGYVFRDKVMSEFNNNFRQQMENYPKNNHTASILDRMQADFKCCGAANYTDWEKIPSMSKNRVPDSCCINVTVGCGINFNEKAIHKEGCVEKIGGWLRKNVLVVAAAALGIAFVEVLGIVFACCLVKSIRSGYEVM
Test: ECL, U87MG cells
We begin with a simple list: items and their reported binding ratio at 3.7 nM vs NIH3T3.
Use fold as the unit, but write only the number.

Examples from the recorded data:
{"binder": "H2M12450N (antibody, V domains shown, also called H2aM12450N; mAb12450) VH: QVQLQESGPKVVKPSETLSLTCTVSGGSISSYYWNWIRQSPGKGLEWIGYTKRGYTDYNPSLRSRVTISEDTSKNQFSLRISSVTAADTAVYYCAQMGWGSHAFDMWGQGTMVAVSS VL: EIVLTQSPGTLSLSPGERATLSCRASQSVNSRYLAWYQQKPGQAPRLLIYGASSRATGIPDRCSGSGSGTDFTLTISRLEPEDFAVYYCQQYGSSPWTFGQGTKVEIK", "assay.value": 272}
{"binder": "H1M12386N (antibody, V domains shown) VH: QVQLEESGGGVVKAGGSLRLSCVASGFTFSDYYINWIRQAPGKGLEWVSYINNGGYTIYYADSVKGRFTMSRDNAKNSVYLEMNGLRAEDTAFYYCVRDPRSYYGFDYWGQGTLVTVSS VL: DIQMTQSPSSLSASVGDRVTITCRASQSISSYLNWNQQKPGKAPKLLIYVASSLQSGVPSRFSGSGSGTDFTLTISGLQPEDFAPYYCQQSYITPPITFGQGTRLDIK", "assay.value": 129}

Next binder, binding ratio at 3.7 nM vs NIH3T3 to be filled in.
Problem: // binding ratio at 3.7 nM vs NIH3T3 lookup, key: H2M12387N (antibody, V domains shown, also called H2aM12387N) VH: QVQLEESGGGVVKAGGSLRLSCAASGFTFSDYYMNWIRQAPGKGLEWVSYINNGGYTIYYADSVKGRFTMSRDNAKNSVYLQMNGLRAEDTAFYYCVRDPRSYYGFDYWGQGTLVIVSS VL: DIQMTQSPSSLSASVGDRVTITCRASQSISRFLHWYQQKPGKAPKLLIYGASSLQSGVPSRFSGSGSGTDFTLTISSLQPEDFATYYCQQSYSTPPITFGQGTRLEIK
Result: 172
